Here's a roundup of pKi values tested on Tyrosine-protein kinase JAK2 (Homo sapiens), taken from various published works.
pKi: −log10 of the molar value.
resultType: pKi

chemicalstructure=CC[C@H](Nc1cc(-c2c(N)nn3cccnc23)ncn1)c1ccc(Cl)cc1F result="> 8.00"
chemicalstructure=COCCN(C)c1nc(N[C@@H](C)c2ccc(F)cc2F)cc(-c2c(N)nn3cccnc23)n1 result="7.00 to 8.00"
chemicalstructure=N#CCCN(Cc1cccnc1)C(=O)c1cc(-c2ncnc3[nH]ccc23)c[nH]1 result="> 7.00"
chemicalstructure=CC[C@@H](C(=O)NCC(F)(F)F)n1ccc2cnc(-c3c[nH]c4ncncc34)nc21 result="> 6.30"
chemicalstructure=N#Cc1cccc(F)c1-c1cc(Nc2ccc(N3C[C@H]4COC[C@H]4C3)nc2)c2c(n1)CNC2=O result="6.00 to 7.00"
chemicalstructure=O=C(CC(F)(F)F)N1CC=C(c2ncnc3[nH]ccc23)CC1 result="5.30 to 6.30"
chemicalstructure=O=C(CCC1CC1)Nc1nc(-c2ncnc3[nH]ccc23)cs1 result="> 7.00"
chemicalstructure=CC1CCN(C(=O)c2cc(N[C@@H](C)C(=O)NCC(F)(F)F)nc(-c3c[nH]c4ncncc34)n2)CC1 result="5.30 to 6.30"
